# Lookup of reported TGI keyed by entry
Tested on: HL-60(TB) leukemia
Assay: NCI tumour cell line growth inhibition, 48 h
recorded metric: TGI (µM)

[
  {
    "molecule": "CCC(O)c1ccc(N=Cc2ccccc2O)cc1 (stereo unspecified)",
    "result modifier": ">",
    "test result": 100
  },
  {
    "molecule": "CC1(C)OC[C@@H](O)[C@H](Br)CO1",
    "result modifier": ">",
    "test result": 100
  },
  {
    "molecule": "CC1=C[C@H]2C[C@H](C)[C@H]3CC[C@H](C)[C@]4(C1)C(=O)C(O)=C(C)C(=O)[C@@]324",
    "result modifier": "=",
    "test result": 33.1
  },
  {
    "molecule": "Nc1ccccc1C#C/C=C\\C#Cc1c(F)c(F)c(F)c(F)c1F",
    "result modifier": "=",
    "test result": 57.1
  },
  {
    "molecule": "OC12c3ccccc3C3CCC4(OCCO4)C3C1c1ccccc12 (stereo unspecified)",
    "result modifier": ">",
    "test result": 100
  },
  {
    "molecule": "COc1ccc2c3c([nH]c2c1)CCN(Cc1ccccc1)C3",
    "result modifier": "=",
    "test result": 35.8
  }
]

----------
Tested on: HT29 colon
Test: NCI tumour cell line growth inhibition, 48 h
Below, each of the compounds is paired with its reported TGI value.

[
  {
    "compound": "Cc1ccc(C)c(NC(=O)CC2SC(=Nc3ccccc3Cl)NC2=O)c1 (centres undefined)",
    "TGI": "> 100 µM"
  },
  {
    "compound": "N#C/C(N)=C(\\C#N)N=CNc1ccc(N)cc1",
    "TGI": "> 100 µM"
  },
  {
    "compound": "CC1(C)CC(=O)c2c(nc3c(ccc4ccccc43)c2-c2ccc(NC(=O)CCCCC(=O)Nc3ccc(-c4c5c(nc6c4ccc4ccccc46)CC(C)(C)CC5=O)cc3)cc2)C1",
    "TGI": "62.3 µM"
  },
  {
    "compound": "C#COc1cccc(Nc2ncnc3cc(NC(=O)[C@H](C)Cl)ccc23)c1",
    "TGI": "> 62.5 µM"
  },
  {
    "compound": "NCCCCCCNCc1cccc2ccccc12",
    "TGI": "> 100 µM"
  },
  {
    "compound": "C[C@]12CCNC(=O)C=C1CC[C@@H]1C2CC[C@@]2(C)C1CC[C@@H]2OC(=O)COc1ccc(N(CCCl)CCCl)cc1 (some centres undefined)",
    "TGI": "27.5 µM"
  },
  {
    "compound": "CN(C(=O)Cc1cc(Cl)c(Cl)cc1NC(=O)CN)[C@H]1CCCC[C@@H]1N1CCCC1",
    "TGI": "58.7 µM"
  },
  {
    "compound": "Cc1cn(-c2ccc(S(C)(=O)=O)cc2)c(-c2ccc(Cl)cc2)n1",
    "TGI": "> 100 µM"
  },
  {
    "compound": "c1ccc2c(c1)ccn1ccc3c4ccccc4nc-3c21",
    "TGI": "1.58 µM"
  }
]

----------
Tested on: NCI-H522 lung
Assay: NCI tumour cell line growth inhibition, 48 h
Parameter TGI: see the listing below.

[
  {
    "smiles input": "COc1ccccc1NS(=O)(=O)c1ccc2oc(SC(C)C)nc2c1",
    "assayed target": "NCI-H522 lung",
    "result modifier": "=",
    "TGI [µM]": 75.7
  },
  {
    "smiles input": "CCN(CC)CCCNc1[nH]ncc2c(C)c3nc4ccc(OC)cc4c3cc12",
    "assayed target": "NCI-H522 lung",
    "result modifier": "=",
    "TGI [µM]": 0.639
  },
  {
    "smiles input": "COc1ccc2nc3n(c2c1)C(=O)c1ccccc1-3",
    "assayed target": "NCI-H522 lung",
    "result modifier": ">",
    "TGI [µM]": 100
  }
]

----------
Test system: NCI-H226 lung
Assay: NCI tumour cell line growth inhibition, 48 h

[
  {
    "compound": "Cc1cc(Nc2cc(N3CCN(C)CC3)nc(Sc3ccc(NC(=O)C4CC4)cc3)n2)n[nH]1",
    "TGI": "> 10 µM"
  },
  {
    "compound": "COc1cccc(C2C3=C(COC3=O)N(CCO)c3cc4c(cc32)OCO4)c1 (configuration not stated)",
    "TGI": "> 50 µM"
  },
  {
    "compound": "CCOC(=O)c1c(N2CCCC2)ncn(C)c1=S",
    "TGI": "> 100 µM"
  },
  {
    "compound": "COc1cc(/C=C/c2cc(/C=C/c3ccc(O)c(OC)c3)n(C(=O)Nc3ccc(Cl)cc3)n2)ccc1O",
    "TGI": "7.92 µM"
  },
  {
    "compound": "COc1cc2c(cc1C1=NC(C)(C)CO1)OCO2",
    "TGI": "> 100 µM"
  },
  {
    "compound": "C=CCN(c1cc(OC)c2[nH]c(C(=O)OCC)c(C)c2c1[N+](=O)[O-])S(C)(=O)=O",
    "TGI": "25.3 µM"
  },
  {
    "compound": "CC(C)/C(=N\\[N+](C)(C)C)c1ccccc1",
    "TGI": "> 100 µM"
  },
  {
    "compound": "O=C(c1ccccc1)n1c(-c2ccccc2)cs/c1=N\\S(=O)(=O)c1ccc(N2N=C3c4ccccc4CC3C2c2cccs2)cc1 (configuration not stated)",
    "TGI": "85.2 µM"
  },
  {
    "compound": "CCOC(=O)/C(=C/c1ccc(N(CCC#N)CCC#N)cc1C)NC(=O)/C=C/c1ccccc1",
    "TGI": "> 100 µM"
  },
  {
    "compound": "COC(=O)/C=C\\C(C#N)(C#N)N=Cc1sccc1C",
    "TGI": "13.2 µM"
  },
  {
    "compound": "Cc1ccc2[nH]c3[nH]c(=S)[nH]c(=O)c3c2c1",
    "TGI": "> 100 µM"
  },
  {
    "compound": "COc1ccc(-n2c(=O)n(-c3ccccc3)c(=O)n2-c2ccc(OC)cc2)cc1",
    "TGI": "> 100 µM"
  },
  {
    "compound": "COc1ccc(N2C(=O)C3c4[nH]c5ccc(F)cc5c4C4CCC(C(C)(C)C)CC4C3C2=O)cc1 (configuration not stated)",
    "TGI": "> 10 µM"
  },
  {
    "compound": "CCOC(=O)C1([Se]c2ccccc2)CCCC1=O (configuration not stated)",
    "TGI": "74.8 µM"
  },
  {
    "compound": "CCC(O)c1ccc(N=Cc2ccccc2O)cc1 (configuration not stated)",
    "TGI": "> 100 µM"
  },
  {
    "compound": "COc1cc(NC=C2C(=O)OC(C)(C)OC2=O)c(OC)c(C)c1OC",
    "TGI": "> 100 µM"
  },
  {
    "compound": "Cc1ccc(C)c(NC(=O)CC2SC(=Nc3ccccc3Cl)NC2=O)c1 (configuration not stated)",
    "TGI": "> 100 µM"
  },
  {
    "compound": "COc1cccc2c1C(=O)OC2c1cccc2ccccc12 (configuration not stated)",
    "TGI": "> 100 µM"
  },
  {
    "compound": "S=C(N1CCN(c2cccc(Cl)c2)CC1)N1CCN(c2cccc(Cl)c2)CC1",
    "TGI": "88.4 µM"
  },
  {
    "compound": "CCOC(=O)c1ccc2c(c1)[n+](=O)c(C(C)=O)c(C(F)(F)F)n2[O-]",
    "TGI": "3.93 µM"
  },
  {
    "compound": "C/C=C/COC(=O)CO[N+](=O)[O-]",
    "TGI": "> 100 µM"
  },
  {
    "compound": "COC(=O)/C=c1\\s/c(=C\\C(=O)OC)c2ccccc12",
    "TGI": "> 100 µM"
  }
]

----------
Tested on: NCI-H522 lung
Assay: NCI tumour cell line growth inhibition, 48 h
TGI reference

[
  {
    "compound": "Cc1cn(-c2ccc(S(C)(=O)=O)cc2)c(-c2ccc(Cl)cc2)n1",
    "result modifier": ">",
    "TGI, µM": 100
  },
  {
    "compound": "COc1cc(-n2ccnc2)cc(OC)c1OC",
    "result modifier": ">",
    "TGI, µM": 100
  },
  {
    "compound": "NCCCCCCNCc1cccc2ccccc12",
    "result modifier": ">",
    "TGI, µM": 100
  },
  {
    "compound": "CCOC(=O)/C(=C/c1ccc(N(CCC#N)CCC#N)cc1C)NC(=O)/C=C/c1ccccc1",
    "result modifier": ">",
    "TGI, µM": 100
  },
  {
    "compound": "Nc1nc(N)c2cc(Sc3cccc(C(F)(F)F)c3)ccc2n1",
    "result modifier": "=",
    "TGI, µM": 8.34
  },
  {
    "compound": "CCOC(=O)c1c(N2CCCC2)ncn(C)c1=S",
    "result modifier": ">",
    "TGI, µM": 100
  },
  {
    "compound": "CC(=O)OC1CC[C@@]2(C)C(CC[C@]3(C)C2CC=C2[C@@H]4C(C)[C@H](C)CCC4(C)CCC23C)[C@@]1(C)C(=O)O (stereo partly specified)",
    "result modifier": "=",
    "TGI, µM": 45.4
  },
  {
    "compound": "CC(CN(C)C)C(=O)c1ccccc1 (stereo unspecified)",
    "result modifier": "=",
    "TGI, µM": 4.32
  },
  {
    "compound": "Cc1c(C(N)=O)sc2c1c(=O)n(Cc1ccccc1)c1nnc(-c3ccc(Br)cc3)n21",
    "result modifier": "=",
    "TGI, µM": 12.9
  },
  {
    "compound": "Cc1cc(O)c(/C=N/C(=S)Nc2ccccc2)c(=O)o1",
    "result modifier": ">",
    "TGI, µM": 100
  },
  {
    "compound": "C=CCN(c1cc(OC)c2[nH]c(C(=O)OCC)c(C)c2c1[N+](=O)[O-])S(C)(=O)=O",
    "result modifier": "=",
    "TGI, µM": 43.9
  }
]
